Test: Blood-brain distribution / LogBB
Format: in vivo
Conditions: mean of the animals; male Wistar rats, bolus plus 60 min continuous i.v. infusion
assay_readout: LogBB Mean
Answer as a number with no unit attached.

{"compound": "NCc1c(-c2ccc(Cl)cc2Cl)ncn1Cc1ccccc1 [Example 24b]", "LogBB Mean": "−0.3160"}

Tell me the measured LogBB Mean of NCc1c(-c2ccc(Cl)cc2Cl)ncn1Cc1ccccn1 [Example 39b] , please. −0.4580

Tell me the measured LogBB Mean of NCc1c(-c2ccc(Cl)cc2Cl)ncn1Cc1cccnc1 [Example 121b] , please. −0.6700

Tell me the measured LogBB Mean of NCc1c(-c2ccc(Cl)cc2Cl)ncn1Cc1ccsc1 [Example 130b] , please. −0.6380

---

Target: UniProt P27487
Experiment: DP IV inhibition IC50, parallel-synthesis compounds tested directly following synthesis (without purification)
Format: biochemical
Parameters: IC50 DP4; other: tested directly following parallel synthesis, without purification; compounds of formula (Ib) from parallel synthesis, tested directly following synthesis
Conditions: DP IV inhibition; compounds of formula (Ib) from parallel synthesis, tested directly following synthesis (without purification); read-out: IC50
Text: Compounds were immediately tested regarding their activity as DP IV inhibitors. Substances are screened for inhibition of dipeptidyl peptidase (DP IV) by their ability to inhibit the hydrolysis of the DP IV specific substrate Glycyl-Prolyl-4-Nitroanilide (Gly-Pro-pNA). […] The method was automated using a Tecan Genesis Freedom liquid handler and a Genius Pro (Tecan) microplate reader. […] After short mixing (20 s) the release of 4-Nitroanilin (pNA) is monitored at 405 nm for 30 cycles (approx. 18 min). […]
assay_readout: IC50 (µM)
Form entry: value (µM) — number only.

Consider the worked cases shown below.
{"compound": "NCc1c(-c2ccc(Cl)cc2Cl)ncn1CCc1ccc(O)cc1 [113b]", "IC50 (µM)": 21.7}
{"compound": "NCc1c(-c2ccc(Cl)cc2Cl)ncn1CCC1=CCCCC1 [65b]", "IC50 (µM)": 2.8}
{"compound": "CC(N)c1c(-c2ccc(Cl)cc2Cl)ncn1CCCc1ccccc1 (centres unmarked) [70b]", "IC50 (µM)": 41.5}
{"compound": "CC(N)c1c(-c2ccc(Cl)cc2Cl)ncn1CCc1ccccn1 (centres unmarked) [73b]", "IC50 (µM)": 38.8}
{"compound": "CC(N)c1c(-c2ccc(Cl)cc2Cl)ncn1Cc1ccccc1 (centres unmarked) [109b]", "IC50 (µM)": 7.3}

Reported IC50 for UniProt P27487, given CC(N)c1c(-c2ccc(Cl)cc2Cl)ncn1Cc1cc(F)ccc1F (centres unmarked) [36b] ? 25.3

Reported IC50 for UniProt P27487, given NCc1c(-c2ccc(Cl)cc2Cl)ncn1CCCCCO [Example 38b] ? 1.9

Reported IC50 for UniProt P27487, given NCc1c(-c2ccc(Cl)cc2Cl)ncn1CCc1ccc(Cl)cc1 [102b] ? 19

Reported IC50 for UniProt P27487, given NCCCc1c(-c2ccc(Cl)cc2Cl)ncn1CCc1c[nH]c2cc(Cl)ccc12 [105b] ? 37.9

Reported IC50 for UniProt P27487, given NCc1c(-c2ccc(Cl)cc2Cl)ncn1CCN1CCCC1 [26b] ? 40.6

Reported IC50 for UniProt P27487, given CCn1cnc(-c2ccc(Cl)cc2Cl)c1CN [122b] ? 46
